Where do these numbers come from? They come from ChEMBL document CHEMBL3991601.

Overview of reported Kd across a group of compounds:
Target: UniProt:O14965
Sequence (O14965 whole entry): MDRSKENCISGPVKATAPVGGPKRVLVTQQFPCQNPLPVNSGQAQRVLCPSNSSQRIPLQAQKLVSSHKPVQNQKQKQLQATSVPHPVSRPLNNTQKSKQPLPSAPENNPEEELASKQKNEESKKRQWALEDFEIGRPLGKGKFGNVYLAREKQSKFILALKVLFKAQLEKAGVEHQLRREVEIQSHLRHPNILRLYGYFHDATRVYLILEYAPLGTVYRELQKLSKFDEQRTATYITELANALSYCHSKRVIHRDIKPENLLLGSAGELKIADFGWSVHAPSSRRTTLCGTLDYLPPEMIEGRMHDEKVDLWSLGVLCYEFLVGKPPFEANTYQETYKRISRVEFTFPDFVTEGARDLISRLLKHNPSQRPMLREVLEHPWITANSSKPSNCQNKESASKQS
Activity calls are given as the source filed them.
ENDPOINT LABEL: Kd

[
  {
    "COMPOUND": "Nc1ncnc2c1c(-c1cccc(OCc3ccccc3)c1)cn2[C@H]1C[C@@H](CN2CCC2)C1",
    "REPORTED MEASUREMENT": "> 30 µM (inactive)"
  },
  {
    "COMPOUND": "CNC(=O)c1nn(C)c2c1C(C)(C)Cc1cnc(Nc3ccc(N4CCN(C)CC4)cc3)nc1-2",
    "REPORTED MEASUREMENT": "> 30 µM (inactive)"
  },
  {
    "COMPOUND": "CO[C@H]1C[C@@H]2CC[C@@H](C)[C@@](O)(O2)C(=O)C(=O)N2CCCC[C@H]2C(=O)O[C@H]([C@H](C)C[C@@H]2CC[C@@H](OC(=O)C(C)(CO)CO)[C@H](OC)C2)CC(=O)[C@H](C)/C=C(\\C)[C@@H](O)[C@@H](OC)C(=O)[C@H](C)C[C@H](C)/C=C/C=C/C=C/1C",
    "REPORTED MEASUREMENT": "> 30 µM (inactive)"
  },
  {
    "COMPOUND": "CO[C@H]1C[C@@H]2CC[C@@H](C)[C@@](O)(O2)C(=O)C(=O)N2CCCC[C@H]2C(=O)O[C@H]([C@H](C)C[C@@H]2CC[C@@H](O)[C@H](OC)C2)CC(=O)[C@H](C)/C=C(\\C)[C@@H](O)[C@@H](OC)C(=O)[C@H](C)C[C@H](C)/C=C/C=C/C=C/1C",
    "REPORTED MEASUREMENT": "> 30 µM (inactive)"
  },
  {
    "COMPOUND": "Cc1nc2cc(-c3nn(C(C)C)c4ncnc(N)c34)ccc2o1",
    "REPORTED MEASUREMENT": "> 30 µM (inactive)"
  },
  {
    "COMPOUND": "Cn1cc(-c2cnn3c(N)c(Br)c([C@@H]4CCCNC4)nc23)cn1",
    "REPORTED MEASUREMENT": "> 30 µM (inactive)"
  },
  {
    "COMPOUND": "CN(C[C@@H]1COCCO1)S(=O)(=O)Nc1ccc2ccc3ncc(-c4cnn(C)c4)cc3c(=O)c2c1",
    "REPORTED MEASUREMENT": "> 30 µM (inactive)"
  },
  {
    "COMPOUND": "O=C(Nc1cc(C(F)(F)F)cc(C(F)(F)F)c1)c1cc(Cl)ccc1O",
    "REPORTED MEASUREMENT": "> 30 µM (inactive)"
  },
  {
    "COMPOUND": "COCc1c(-c2ccc(NC(=O)Nc3cc(C(F)(F)F)ccc3F)c(F)c2)c2c(N)ncnn2c1CN1CCOCC1",
    "REPORTED MEASUREMENT": "> 30 µM (inactive)"
  },
  {
    "COMPOUND": "C[C@@H](NC(=O)c1ncnc(N)c1Cl)c1ncc(C(=O)Nc2cc(C(F)(F)F)c(Cl)cn2)s1",
    "REPORTED MEASUREMENT": "> 30 µM (inactive)"
  },
  {
    "COMPOUND": "COc1cc([C@@H]2c3cc4c(cc3[C@H](O)[C@H]3COC(=O)[C@@H]23)OCO4)cc(OC)c1OC",
    "REPORTED MEASUREMENT": "> 30 µM (inactive)"
  },
  {
    "COMPOUND": "C=CC(=O)Nc1cc2c(Nc3ccc(F)c(Cl)c3)ncnc2cc1C#CC(C)(C)N1CCN(C)CC1 [AV-412 FREE BASE]",
    "REPORTED MEASUREMENT": "> 30 µM (inactive)"
  },
  {
    "COMPOUND": "CN1C/C=C/CCOc2cccc(c2)-c2ccnc(n2)Nc2cccc(c2)C1",
    "REPORTED MEASUREMENT": "> 30 µM (inactive)"
  },
  {
    "COMPOUND": "C[C@@H](N)c1ccc(C(=O)Nc2ccnc3[nH]ccc23)cc1",
    "REPORTED MEASUREMENT": "> 30 µM (inactive)"
  }
]
